The measurements presented in this section are drawn from paper PMC12027554.

- Measured target: UniProt:P22309
- Sequence (P22309 26-533): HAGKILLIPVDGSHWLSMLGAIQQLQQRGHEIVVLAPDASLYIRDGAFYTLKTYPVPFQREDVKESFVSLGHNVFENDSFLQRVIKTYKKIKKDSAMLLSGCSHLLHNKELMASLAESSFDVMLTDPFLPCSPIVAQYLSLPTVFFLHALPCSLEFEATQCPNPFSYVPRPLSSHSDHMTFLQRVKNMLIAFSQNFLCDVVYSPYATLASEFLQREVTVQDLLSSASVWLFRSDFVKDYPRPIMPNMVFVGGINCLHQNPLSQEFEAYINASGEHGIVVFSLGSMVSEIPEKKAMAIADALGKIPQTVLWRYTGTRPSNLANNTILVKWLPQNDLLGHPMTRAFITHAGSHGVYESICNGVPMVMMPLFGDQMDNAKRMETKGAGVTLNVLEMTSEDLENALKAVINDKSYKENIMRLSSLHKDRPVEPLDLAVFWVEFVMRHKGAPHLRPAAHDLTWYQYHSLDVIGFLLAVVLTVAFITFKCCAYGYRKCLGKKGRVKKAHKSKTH
- Test: Inhibition of UGT1A1 glucuronidation activity (recombinant enzyme)
- Assay type: biochemical
- Condition parameters: substrate β-estradiol 10 μM, SCO-101 0.003–1 µM; read-out: IC50, UGT1A1 glucuronidation of β-estradiol
Value type: pIC50
Numbers only, as −log10 of the molar value.

Recorded pIC50 for O=C(Nc1cc(C(F)(F)F)cc(C(F)(F)F)c1)Nc1ccc(Br)cc1-c1nnn[nH]1 [SCO-101] with UniProt:P22309, please?
6.55

###

- Measured target: ABCG2 (Homo sapiens)
- Sequence (Q9UNQ0 whole entry): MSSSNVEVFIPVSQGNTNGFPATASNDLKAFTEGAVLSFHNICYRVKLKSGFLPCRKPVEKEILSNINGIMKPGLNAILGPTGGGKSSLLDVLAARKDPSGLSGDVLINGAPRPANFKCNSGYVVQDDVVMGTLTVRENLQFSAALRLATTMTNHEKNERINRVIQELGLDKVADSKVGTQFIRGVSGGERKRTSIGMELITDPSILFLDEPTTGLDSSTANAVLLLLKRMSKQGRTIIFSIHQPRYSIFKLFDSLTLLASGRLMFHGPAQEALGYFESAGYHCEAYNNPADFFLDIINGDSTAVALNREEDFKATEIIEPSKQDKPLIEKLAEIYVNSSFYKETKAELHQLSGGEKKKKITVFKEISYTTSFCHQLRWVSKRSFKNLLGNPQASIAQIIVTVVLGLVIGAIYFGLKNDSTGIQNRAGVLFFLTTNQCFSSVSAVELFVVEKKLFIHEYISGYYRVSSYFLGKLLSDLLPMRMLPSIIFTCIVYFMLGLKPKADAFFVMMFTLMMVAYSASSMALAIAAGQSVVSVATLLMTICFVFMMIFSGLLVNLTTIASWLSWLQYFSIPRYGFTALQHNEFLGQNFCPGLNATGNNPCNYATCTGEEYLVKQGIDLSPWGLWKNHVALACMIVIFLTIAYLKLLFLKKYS
- Test: Efflux transporter inhibition, vesicular uptake into inside-out membrane vesicles (ABCG2)
- Type: biochemical
- Parameters: purchased SOLVO biotechnology, Budapest, Hungary
- Condition parameters: ABCG2 inside-out vesicles, 1 μM estrone-3-sulfate, SCO-101 0.001–300 µM; read-out: IC50, ATP-dependent vesicular uptake of probe substrate (remaining ABCG2 activity)
Value type: IC50 (µM)
Answers are plain numbers, in µM.

Given the compound O=C(Nc1cc(C(F)(F)F)cc(C(F)(F)F)c1)Nc1ccc(Br)cc1-c1nnn[nH]1 [SCO-101] , what is its reported IC50?
0.16

###

- System: SNU-5 cells
- Test: Cell viability assay (CellTiter-Glo), SNU-5
- Type: cell-based
- Condition parameters: Homo sapiens, 96 h
pIC50: −log10 of the molar value.
Value type: pIC50

Name the recorded pIC50 for O=C(Nc1cc(C(F)(F)F)cc(C(F)(F)F)c1)Nc1ccc(Br)cc1-c1nnn[nH]1 .
< 4.30

###

Consider the following compounds; for each one, report its pIC50.
- Tested on: HT29PAR cells
- Test: Cell viability assay (MTT / CCK-8), drug-sensitive HT29
- Format: cell-based, human
- Condition parameters: Homo sapiens, HT-29, 72 h
- Method: Cells were seeded at a density of 0.2–1 × 10^4 cells/well into 96-well plates. One day after seeding, treatments were performed in triplicate for 72 h, or as otherwise indicated in the relevant panel/figure legend and kept at 37 °C/5% CO2. Growth medium alone (“untreated” cells) or DMSO was used as a control. […] Background values were subtracted prior to further analysis. The percentage of cell viability was expressed as relative values versus untreated cells as determined by the various assays. […]
Numbers only, as −log10 of the molar value.

- Structure as smiles: "NS(=O)(=O)OC[C@@H]1C[C@@H](n2ccc3c(N[C@H]4CCc5ccccc54)ncnc32)C[C@@H]1O"
  Measured target: "HT29PAR cells"
  pIC50: 6.89

Now, please, on to the next compound.
Request body: readout pIC50, system HT29PAR cells, query CC[C@@]1(O)C(=O)OCc2c1cc1n(c2=O)Cc2cc3c(CN(C)C)c(O)ccc3nc2-1 . Return the value.
7.22

###

- System: HT29SN-38 cells
- Test: Cell viability assay (MTT / CCK-8), SN-38-resistant HT29
- Format: cell-based, human
- Condition parameters: Homo sapiens, HT-29, 72 h
Kindly state pIC50 for each of the entries shown.
One number for each entry, as −log10 of the molar value.

- Compound: "CC[C@@]1(O)C(=O)OCc2c1cc1n(c2=O)Cc2cc3c(CN(C)C)c(O)ccc3nc2-1 [topotecan]"
  pIC50: 5.87

pIC50 lookup needed for NS(=O)(=O)OC[C@@H]1C[C@@H](n2ccc3c(N[C@H]4CCc5ccccc54)ncnc32)C[C@@H]1O [pevonedistat] , thanks.
5.49

###

- Measured target: MRP2/ABCC2 (Homo sapiens)
- Sequence (Q92887 whole entry): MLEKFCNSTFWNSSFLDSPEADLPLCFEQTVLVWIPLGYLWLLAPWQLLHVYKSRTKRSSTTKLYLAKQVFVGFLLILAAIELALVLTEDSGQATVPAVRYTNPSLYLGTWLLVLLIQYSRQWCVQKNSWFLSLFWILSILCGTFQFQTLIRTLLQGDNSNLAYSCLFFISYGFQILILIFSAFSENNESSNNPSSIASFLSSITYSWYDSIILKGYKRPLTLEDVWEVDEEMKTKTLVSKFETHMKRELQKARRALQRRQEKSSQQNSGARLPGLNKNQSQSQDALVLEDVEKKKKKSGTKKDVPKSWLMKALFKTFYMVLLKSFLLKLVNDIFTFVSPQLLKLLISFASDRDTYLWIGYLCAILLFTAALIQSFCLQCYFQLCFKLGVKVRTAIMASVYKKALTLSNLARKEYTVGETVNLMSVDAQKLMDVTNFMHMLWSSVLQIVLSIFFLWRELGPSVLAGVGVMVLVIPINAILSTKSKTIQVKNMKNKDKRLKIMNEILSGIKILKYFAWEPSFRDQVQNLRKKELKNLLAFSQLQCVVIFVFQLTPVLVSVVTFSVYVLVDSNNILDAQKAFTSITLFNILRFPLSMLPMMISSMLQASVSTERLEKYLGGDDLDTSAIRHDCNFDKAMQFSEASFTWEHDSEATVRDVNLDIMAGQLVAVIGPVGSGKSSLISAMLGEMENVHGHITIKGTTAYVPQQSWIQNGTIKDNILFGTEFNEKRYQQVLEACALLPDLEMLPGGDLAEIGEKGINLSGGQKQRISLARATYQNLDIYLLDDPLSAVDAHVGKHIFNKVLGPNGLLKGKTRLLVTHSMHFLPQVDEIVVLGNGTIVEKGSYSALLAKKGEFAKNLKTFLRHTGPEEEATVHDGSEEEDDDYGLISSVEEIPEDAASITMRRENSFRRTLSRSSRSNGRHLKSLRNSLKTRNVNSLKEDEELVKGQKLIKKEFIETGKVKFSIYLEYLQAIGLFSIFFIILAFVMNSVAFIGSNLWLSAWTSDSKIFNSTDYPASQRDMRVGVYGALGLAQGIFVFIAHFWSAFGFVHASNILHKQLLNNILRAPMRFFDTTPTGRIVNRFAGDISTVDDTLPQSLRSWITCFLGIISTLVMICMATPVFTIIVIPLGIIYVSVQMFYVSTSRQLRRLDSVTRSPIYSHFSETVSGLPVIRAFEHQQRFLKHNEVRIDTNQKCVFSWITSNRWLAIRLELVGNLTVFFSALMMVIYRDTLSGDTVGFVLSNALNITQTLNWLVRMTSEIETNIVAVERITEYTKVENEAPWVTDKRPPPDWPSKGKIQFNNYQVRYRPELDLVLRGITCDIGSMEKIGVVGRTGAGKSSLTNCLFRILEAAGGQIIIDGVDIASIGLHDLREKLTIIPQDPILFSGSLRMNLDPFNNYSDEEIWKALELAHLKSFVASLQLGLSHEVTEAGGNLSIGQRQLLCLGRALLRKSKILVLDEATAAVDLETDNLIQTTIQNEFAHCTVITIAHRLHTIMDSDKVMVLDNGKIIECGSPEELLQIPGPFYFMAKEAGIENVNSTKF
- Test: Efflux transporter inhibition, vesicular uptake into inside-out membrane vesicles (ABCC2)
- Condition parameters: 100 μM 5(6)-carboxy-2′,7′-dichlorofluorescein
Value type: IC50 (µM)
One number for each entry, in µM.

Look up IC50: O=C(Nc1cc(C(F)(F)F)cc(C(F)(F)F)c1)Nc1ccc(Br)cc1-c1nnn[nH]1
24.1
